Target: HLA-B*51:01
Assay: IEDB peptide-MHC binding, purified MHC/competitive/fluorescence; filed as Kd, often an IC50 or EC50 that approximates it; bounds were set here for any values at or beyond the usual limits of such assays
Conditions: source organism: Influenza A virus (A/Harbin/1/1988(H1N2))
Outcome measure: Kd (nM)
Kindly answer with a numeric value in nM, unit omitted.

Request: Endpoint output: Kd of LPFQNVHPV . Value?
Result: 1490

----------
Biological target: HLA-A*26:01
Assay: IEDB peptide-MHC binding, purified MHC/competitive/radioactivity; filed as Kd, often an IC50 or EC50 that approximates it; bounds were set here for any values at or beyond the usual limits of such assays
Settings: source organism: Dengue virus 3 Sri Lanka/1266/2000
Outcome measure: Kd (nM)
State just the number; it will be interpreted in nM.

Request: What value of measured Kd is listed for LIVSGIFPY ?
Result: 1160

----------
Biological target: HLA-A*30:01
Assay: IEDB peptide-MHC binding, purified MHC/competitive/fluorescence; filed as Kd, often an IC50 or EC50 that approximates it; bounds were set here for any values at or beyond the usual limits of such assays
Details: source organism: Lyssavirus rabies
Outcome measure: Kd

Request: Given the sequence YLDNVGVHI , what is its reported Kd?
Result: ≥ 5 µM

----------
Target: HLA-A*26:01
Test: IEDB peptide-MHC binding, purified MHC/competitive/fluorescence; filed as Kd, often an IC50 or EC50 that approximates it; bounds were set here for any values at or beyond the usual limits of such assays
Settings: source organism: Influenza A virus (A/Yokohama/22/2002(H1N2))
Outcome measure: Kd

Request: Entry WTGMVDGWY has what Kd?
Result: ≥ 20 µM

----------
Target: HLA-B*35:01
Experiment: IEDB peptide-MHC binding, purified MHC/competitive/fluorescence; filed as Kd, often an IC50 or EC50 that approximates it; bounds were set here for any values at or beyond the usual limits of such assays
Details: source organism: Mycobacterium tuberculosis variant bovis BCG str. Pasteur 1173P2
Outcome measure: Kd
Give the number first and the unit second.

Request: For the sequence KPIPHRTVL , what Kd is on record?
Result: 623 nM

----------
Target: HLA-B*51:01
Test: IEDB peptide-MHC binding, purified MHC/competitive/fluorescence; filed as Kd, often an IC50 or EC50 that approximates it; bounds were set here for any values at or beyond the usual limits of such assays
Settings: source organism: Vibrio cholerae 2740-80
# Kd values compiled below

| Sequence chain | Kd |
| --- | --- |
| KQLPPLAAW | ≥ 20 µM |

Lab note: next sequence to report on.
Request: What value of Kd has been recorded for this entry: IFIRTIYYH
Result: ≥ 20 µM

----------
Target: HLA-B*07:02
Assay: IEDB peptide-MHC binding, purified MHC/direct/fluorescence; filed as Kd, often an IC50 or EC50 that approximates it; bounds were set here for any values at or beyond the usual limits of such assays
Conditions: source organism: Giardia lamblia ATCC 50803
Outcome measure: Kd

| Sequence chain | Kd |
| --- | --- |
| KSNRIPFLY | ≥ 20 µM |

Next, consider the following sequence.
Request: Would you mind telling me what Kd value was observed for IFKNLTKPL ?
Result: ≥ 20 µM

----------
Biological target: HLA-A*11:01
Assay: IEDB peptide-MHC binding, purified MHC/competitive/radioactivity; filed as Kd, often an IC50 or EC50 that approximates it; bounds were set here for any values at or beyond the usual limits of such assays
Conditions: source organism: Vaccinia virus WR
Reported pKd values follow for various sequences
Scale: negative log10 of molar concentration, which is what pKd denotes.

| Sequence chain | Outcome measure | Val |
| --- | --- | --- |
| DAVRAFLLR | pKd | 4.86 |
| NFFVFIHMVR | pKd | 6.14 |
| SSAVVDNKLK | pKd | 7.43 |
| KLGDKGSPYY | pKd | 5.45 |
| EFIFSALDEK | pKd | 8.85 |
| KVVKKLSVIR | pKd | 6.04 |
| NISIISIRPR | pKd | 6.06 |
| LIIGPMFSGK | pKd | 8.74 |
| KFAEESYTYY | pKd | 4.99 |
| ATKRYPGVMY | pKd | 6.79 |

Request: Tell me the measured pKd of AMYYAVLSEY , please.
Result: 7.05

Request: Record: IISRTRLYDY
Result: 5.90

Request: Follow-up item: AIDRQVSVK
Result: 7.38

Request: Can you check PSILPSLIK next?
Result: 6.42

Request: // repeat for RSTAIKVTK and report
Result: 8.17

Request: // query: RLQMAGVEVR
Result: 4.83

Request: Same question, ILSKIPYLR this time
Result: 7.51

Request: What do you get for QILDNAAKY ?
Result: 5.06

Request: Do the same for LLDSIKMIY please
Result: 4.75

Data origin, for the record: the Immune Epitope Database (IEDB)
